Test system: Erythrocyte
Test: Hemolytic activity in human RBC measured after 1 hr by microplate reader analysis
Format: ADME, cell-based
MHC10 by entry:
Hi! Could you send only the number? It should be in µM, unit omitted.

- CCCCCCCCCC(=O)NCC(=O)N[C@@H](CC(C)C)C(=O)N[C@@H](CC(C)C)C(=O)N[C@H](CCCCN)C(=O)N[C@@H](CCCNC(=N)N)C(=O)N[C@H](C(=O)N[C@H](CCCCN)C(=O)N[C@H](C(=O)N[C@@H](CC(C)C)C(=O)N[C@@H](CC(C)C)C(N)=O)[C@@H](C)O)[C@@H](C)CC: 64

In the following, a different molecule is considered.
MHC10 of CCCCCCCCCCCC(=O)NCC(=O)N[C@@H](CC(C)C)C(=O)N[C@@H](CC(C)C)C(=O)N[C@H](CCCCN)C(=O)N[C@@H](CCCNC(=N)N)C(=O)N[C@H](C(=O)N[C@H](CCCCN)C(=O)N[C@H](C(=O)N[C@@H](CC(C)C)C(=O)N[C@@H](CC(C)C)C(N)=O)[C@@H](C)O)[C@@H](C)CC , assay on Erythrocyte, is 16
